System: Sinapis arvensis
TEST PROTOCOL: Weed control pre-emergence (greenhouse pot test)
Type: in vivo
MEASUREMENT SETUP: pre-emergence, 2,5 kg a.i./ha, visual rating after 3-4 weeks
MEASURE NAME: Herbizide Wirkung im Vorauflauf SIA

These solved cases illustrate the format of a correct answer.
compound="O=C(OC(OCC(F)(F)C(F)F)C(Cl)(Cl)Cl)c1cc(Oc2ccc(C(F)(F)F)cc2Cl)ccc1[N+](=O)[O-] (stereo not shown)" assay_system="Sinapis arvensis" value_reported="3 (= 40 - 60 % Wirkung bzw. Schaden)"
compound="CP(C)(=O)COC(OC(=O)c1cc(Oc2ccc(C(F)(F)F)cc2Cl)ccc1[N+](=O)[O-])C(Cl)(Cl)Cl (stereo not shown)" assay_system="Sinapis arvensis" value_reported="5 (= 80 - 100 % Wirkung bzw. Schaden)"
compound="CCOC(OC(=O)c1cc(Oc2ccc(C(F)(F)F)cc2Cl)ccc1[N+](=O)[O-])C(Cl)(Cl)Cl (stereo not shown)" assay_system="Sinapis arvensis" value_reported="5 (= 80 - 100 % Wirkung bzw. Schaden)"

What value of measured Herbizide Wirkung im Vorauflauf SIA is listed for Cc1ncsc1COC(OC(=O)c1cc(Oc2ccc(C(F)(F)F)cc2Cl)ccc1[N+](=O)[O-])C(Cl)(Cl)Cl (stereo not shown) ? 4 (= 60 - 80 % Wirkung bzw. Schaden)

What value of measured Herbizide Wirkung im Vorauflauf SIA is listed for N#CCCSCCOC(OC(=O)c1cc(Oc2ccc(C(F)(F)F)cc2Cl)ccc1[N+](=O)[O-])C(Cl)(Cl)Cl (stereo not shown) ? 4 (= 60 - 80 % Wirkung bzw. Schaden)

What value of measured Herbizide Wirkung im Vorauflauf SIA is listed for CCOC(=O)C(C)OC(OC(=O)c1cc(Oc2c(Cl)cc(C(F)(F)F)cc2Cl)ccc1[N+](=O)[O-])C(Cl)(Cl)Cl (stereo not shown) ? 5 (= 80 - 100 % Wirkung bzw. Schaden)

What value of measured Herbizide Wirkung im Vorauflauf SIA is listed for CCOC(=O)C(C)OC(OC(=O)c1cc(Oc2ccc(C(F)(F)F)cc2Cl)ccc1[N+](=O)[O-])C(Cl)(Cl)Cl (stereo not shown) ? 5 (= 80 - 100 % Wirkung bzw. Schaden)
